Quick record: IC50, RET kinase (Homo sapiens, UniProt P07949).
Provide only the numeric value, understood in nM.

[
  {
    "COMPOUND": "COc1ncc(CN2C3CC2CN(c2ccc(-c4cc(OCC5(C#N)CCOCC5)cn5ncc(C#N)c45)cn2)C3)cc1F [Embodiment 60]",
    "SYSTEM_UNDER_TEST": "RET kinase (Homo sapiens, UniProt P07949)",
    "DATA_VALUE": 0.58
  }
]

Lab note: COc1ncc(CN2C3CC2CN(c2ccc(-c4cc(OCC5CC(C)(O)C5)cn5ncc(C#N)c45)cn2)C3)cc1F (stereo not shown) [Embodiment 72] gave IC50 of 0.37

Lab note: COc1ccc(CN2C3CC2CN(c2ccc(-c4cc(OCC56CC(C#N)(C5)C6)cn5ncc(C#N)c45)cn2)C3)cn1 [Embodiment 53] gave IC50 of 0.8

Lab note: CC1(NC(=O)c2ncccc2F)CCN(c2ccc(-c3cc(OCC4(C#N)CC4)cn4ncc(C#N)c34)cn2)CC1 [Embodiment 93] gave IC50 of 1.1

---

System: TT cells (MTC, RET C634W)
Assay: Inhibition of proliferation of TT cells (CellTiter-Glo, 72 h)
Type: cell-based
Settings: Homo sapiens
Consider the cut-off 10 nM. If the recorded IC50 is strictly smaller, the label is 1; if not, the label is -1.

Would you please look over these solved cases?
[
  {
    "COMPOUND": "CNC(=O)C12CC(COc3cc(-c4ccc(N5CC6CC(C5)N6Cc5ccc(OC)nc5)nc4)c4c(C#N)cnn4c3)(C1)C2 [Embodiment 67]",
    "GROUP": 1
  },
  {
    "COMPOUND": "COc1ccc(CN2C3CC2CN(c2ccc(-c4cc(C#CC5(O)CCOCC5)cn5ncc(C#N)c45)cn2)C3)cn1 [Embodiment 78]",
    "GROUP": -1
  },
  {
    "COMPOUND": "COc1ccc(CN2C3CC2CN(c2ccc(-c4cc(OCC56CC(CO)(C5)C6)cn5ncc(C#N)c45)cn2)C3)cn1 [Embodiment 45]",
    "GROUP": 1
  },
  {
    "COMPOUND": "C#C[C@](C)(O)COc1cc(-c2ccc(N3CC4CC(C3)N4Cc3cnc(OC)c(F)c3)nc2)c2c(C#N)cnn2c1 [Embodiment 65]",
    "GROUP": -1
  },
  {
    "COMPOUND": "COc1ccc(CN2C3CC2CN(c2ccc(-c4cc(OCC5CCS(=N)(=O)CC5)cn5ncc(C#N)c45)cn2)C3)cn1 (stereo not drawn) [Embodiment 54]",
    "GROUP": 1
  }
]

Alright, here's another compound for you.
Task: Identify whether the compound COc1ccc(CN2C3CC2CN(c2ccc(-c4cc(OC[C@H]5C[C@@](C)(O)C5)cn5ncc(C#N)c45)cn2)C3)cn1 [Embodiment 44] records IC50 below 10 nM.
Result: -1

---

Quick reference: AUC(0-inf) of the listed items.
Assay: Balb/C mouse pharmacokinetics, oral 5 mg/kg
Type: in vivo, Balb/C mice
Conditions: male, p.o. 5 mg/kg, plasma, read-out: Curve area AUC0-∞
Provide only the numeric value, understood in µg·h/mL.

Solved cases below.
[
  {
    "COMPOUND": "C#C[C@](C)(O)COc1cc(-c2ccc(N3CC4CC(C3)N4Cc3cnc(OC)c(F)c3)nc2)c2c(C#N)cnn2c1",
    "AUC(0-inf), µg·h/mL": 20.3
  },
  {
    "COMPOUND": "C#CC(C)(O)COc1cc(-c2ccc(N3CC4CC(C3)N4Cc3ccc(OC)nc3)nc2)c2c(C#N)cnn2c1 (stereo not shown)",
    "AUC(0-inf), µg·h/mL": 13.8
  },
  {
    "COMPOUND": "C#C[C@](C)(O)COc1cc(-c2ccc(N3CC4CC(C3)N4Cc3ccc(OC)nc3)nc2)c2c(C#N)cnn2c1",
    "AUC(0-inf), µg·h/mL": 14.5
  },
  {
    "COMPOUND": "CC1(NC(=O)c2ncccc2Cl)CCN(c2ccc(-c3cc(OCC4(C#N)CC4)cn4ncc(C#N)c34)cn2)CC1",
    "AUC(0-inf), µg·h/mL": 24.5
  },
  {
    "COMPOUND": "COc1ccc(CN2C3CC2CN(c2ccc(-c4cc(OC[C@H]5C[C@@](C)(O)C5)cn5ncc(C#N)c45)cn2)C3)cn1",
    "AUC(0-inf), µg·h/mL": 14
  }
]

Lab note: `COc1ncc(CN2C3CC2CN(c2ccc(-c4cc(OCC5(C#N)CCOCC5)cn5ncc(C#N)c45)cn2)C3)cc1F` gave AUC(0-inf) of 28.2

Lab note: `COc1ncc(CN2C3CC2CN(c2ccc(-c4cc(N5CC(C(C)(C)O)C5)cn5ncc(C#N)c45)cn2)C3)cc1F` gave AUC(0-inf) of 18.9

---

Biological target: KDR kinase (Homo sapiens)
Construct: purchased Carna 08-191
Sequence (P35968 20-1356): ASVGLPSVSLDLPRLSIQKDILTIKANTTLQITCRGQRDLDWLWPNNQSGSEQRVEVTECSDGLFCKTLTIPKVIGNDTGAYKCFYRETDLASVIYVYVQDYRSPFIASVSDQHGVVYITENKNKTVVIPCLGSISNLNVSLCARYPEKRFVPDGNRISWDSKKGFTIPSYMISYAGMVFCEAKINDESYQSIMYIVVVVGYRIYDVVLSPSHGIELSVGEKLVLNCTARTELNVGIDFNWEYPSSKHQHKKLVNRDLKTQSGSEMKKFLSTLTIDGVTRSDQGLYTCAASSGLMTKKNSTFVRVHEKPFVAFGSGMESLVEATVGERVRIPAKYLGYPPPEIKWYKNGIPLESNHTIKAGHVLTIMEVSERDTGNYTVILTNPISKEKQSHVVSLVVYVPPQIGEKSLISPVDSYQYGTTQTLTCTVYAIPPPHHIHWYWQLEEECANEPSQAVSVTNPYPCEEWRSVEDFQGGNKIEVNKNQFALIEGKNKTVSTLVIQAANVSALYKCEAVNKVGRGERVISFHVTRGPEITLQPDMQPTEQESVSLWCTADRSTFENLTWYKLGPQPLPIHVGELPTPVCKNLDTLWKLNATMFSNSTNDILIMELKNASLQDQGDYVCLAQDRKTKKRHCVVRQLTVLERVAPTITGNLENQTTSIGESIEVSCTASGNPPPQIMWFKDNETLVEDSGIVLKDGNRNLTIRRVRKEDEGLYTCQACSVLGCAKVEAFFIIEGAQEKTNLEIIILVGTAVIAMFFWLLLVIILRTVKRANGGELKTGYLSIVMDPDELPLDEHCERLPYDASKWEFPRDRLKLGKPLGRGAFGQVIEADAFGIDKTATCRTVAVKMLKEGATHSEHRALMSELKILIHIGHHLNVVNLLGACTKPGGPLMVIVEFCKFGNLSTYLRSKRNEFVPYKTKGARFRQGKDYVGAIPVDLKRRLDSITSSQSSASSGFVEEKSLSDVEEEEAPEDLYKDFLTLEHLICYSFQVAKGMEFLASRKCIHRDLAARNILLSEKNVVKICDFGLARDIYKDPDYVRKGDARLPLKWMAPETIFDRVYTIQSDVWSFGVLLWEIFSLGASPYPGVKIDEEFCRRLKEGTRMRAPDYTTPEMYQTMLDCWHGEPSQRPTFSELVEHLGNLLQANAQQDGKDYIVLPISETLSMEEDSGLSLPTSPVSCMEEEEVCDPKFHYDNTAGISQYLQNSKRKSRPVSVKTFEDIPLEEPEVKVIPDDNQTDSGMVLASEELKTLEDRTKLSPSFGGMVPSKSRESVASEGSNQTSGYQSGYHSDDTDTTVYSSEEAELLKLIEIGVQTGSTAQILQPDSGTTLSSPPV
Assay: HTRF kinase activity inhibition, KDR
Format: biochemical
Conditions: KDR IC50 / RET IC50
QUANTITY_MEASURED: Ratio (KDR/RET)
Give the figure by itself; no unit, no explanation.

[
  {
    "SMILES_STRING": "COc1ccc(CN2C3CC2CN(c2ccc(-c4cc(OCC5(C#N)CC5)cn5ncc(C#N)c45)cn2)C3)cn1",
    "Ratio (KDR/RET)": 280
  },
  {
    "SMILES_STRING": "C#C[C@](C)(O)COc1cc(-c2ccc(N3CC4CC(C3)N4Cc3cnc(OC)c(F)c3)nc2)c2c(C#N)cnn2c1",
    "Ratio (KDR/RET)": 44
  }
]

// next entry
Lab note: `CC1(NC(=O)c2ncccc2Cl)CCN(c2ccc(-c3cc(OCC4(C#N)CC4)cn4ncc(C#N)c34)cn2)CC1` gave Ratio (KDR/RET) of 218

---

Test system: TT cells (MTC, RET C634W)
Assay: Inhibition of proliferation of TT cells (CellTiter-Glo, 72 h)
Format: cell-based
Conditions: Homo sapiens
Quick reference: pIC50 of the listed items.
Bear in mind: pIC50 is minus log10 of a mol/L concentration; give just that figure.

Solved cases below.
[
  {
    "MOLECULE": "COc1ccc(CN2C3CC2CN(c2ccc(-c4cc(N5CC(C(C)(C)O)C5)cn5ncc(C#N)c45)cn2)C3)cn1 [Embodiment 7]",
    "SYSTEM_UNDER_TEST": "TT cells (MTC, RET C634W)",
    "pIC50": 7.96
  },
  {
    "MOLECULE": "COc1ncc(CN2C3CC2CN(c2ccc(-c4cc(OCC5(C#N)CCOCC5)cn5ncc(C#N)c45)cn2)C3)cc1F [Embodiment 60]",
    "SYSTEM_UNDER_TEST": "TT cells (MTC, RET C634W)",
    "pIC50": 7.55
  },
  {
    "MOLECULE": "COc1ccc(CN2C3CC2CN(c2ccc(-c4cc(OCC[S+](C)[O-])cn5ncc(C#N)c45)cn2)C3)cn1 (stereo not shown) [Embodiment 1]",
    "SYSTEM_UNDER_TEST": "TT cells (MTC, RET C634W)",
    "pIC50": 7.94
  },
  {
    "MOLECULE": "CC(C)(O)C#Cc1cc(-c2ccc(N3CCC(C)(NC(=O)c4ncccc4Cl)CC3)nc2)c2c(C#N)cnn2c1 [Embodiment 85]",
    "SYSTEM_UNDER_TEST": "TT cells (MTC, RET C634W)",
    "pIC50": 8.03
  },
  {
    "MOLECULE": "COc1ccc(CN2C3CC2CN(c2ccc(-c4cc(C#CC(C)(C)N)cn5ncc(C#N)c45)cn2)C3)cn1 [Embodiment 17]",
    "SYSTEM_UNDER_TEST": "TT cells (MTC, RET C634W)",
    "pIC50": 7.88
  },
  {
    "MOLECULE": "COc1ncc(CN2C3CC2CN(c2ccc(-c4cc(N5CC(C)(C#N)C5)cn5ncc(C#N)c45)cn2)C3)cc1F [Embodiment 76]",
    "SYSTEM_UNDER_TEST": "TT cells (MTC, RET C634W)",
    "pIC50": 8.46
  }
]

// next entry
Lab note: COc1ncc(CN2C3CC2CN(c2ccc(-c4cc(C#CC5(O)COC5)cn5ncc(C#N)c45)cn2)C3)cc1F [Embodiment 81] gave pIC50 of 7.86
